Settings: buffer; pH 7.4; 200.0 µM
# Lookup of reported log10(solubility kinetic) keyed by entry
measurement.name: log10(solubility kinetic) (log10 of the value in µg/mL)

# smiles.notation, measurement.name, reported
records = [
    ("CCCC(=O)Nc1sc2c(c1C(=O)OCC)CC(C)(C)OC2", "log10(solubility kinetic)", 0.66),
    ("CN(C)c1ccc(NC(=O)CN2CCN(c3ccc(F)cc3)CC2)cc1", "log10(solubility kinetic)", 0.40),
    ("O=C(c1ccccc1)N1CCN(CCc2ccccc2)CC1", "log10(solubility kinetic)", 1.61),
    ("O=C(CCNC(=O)c1ccc(Cl)cc1)Nc1nc2ccccc2[nH]1", "log10(solubility kinetic)", 0.36),
    ("CCOC(=O)c1ccc(Nc2nc(C)cc(C)n2)cc1", "log10(solubility kinetic)", -0.70),
]

###

Conditions: buffer; pH 7.4; 200.0 µM
Would you mind classing the entries by solubility kinetic? Ranges: bucket 1 = under 10 µg/mL, bucket 2 = from 10 µg/mL up to 40 µg/mL, bucket 3 = 40 µg/mL and over

# compound, group
data = [
    ("O=S(=O)(c1cc(F)ccc1F)N1CCN(c2ncccn2)CC1", "bucket 3"),
    ("CCCCNC(=O)c1cc(S(=O)(=O)N2CCCCC2)oc1C", "bucket 2"),
    ("O=C(CSc1ccccc1F)NCCCN1CCCC1=O", "bucket 3"),
    ("COc1ccc2nc(C)cc(SCC(=O)N3CCCCC3)c2c1", "bucket 3"),
    ("COc1ccc(CNC2c3ccccc3-c3ccccc32)cc1OC", "bucket 2"),
    ("CCOc1ccccc1C(=O)NCC(=O)N1CCC(C)CC1", "bucket 3"),
    ("Cc1cc(C)c(NC(=O)c2ccc3nccnc3c2)c(C)c1", "bucket 3"),
    ("Cc1ccc(C(=O)Nc2ccc(C(=O)N3CCCCC3)cc2)o1", "bucket 3"),
    ("COc1ccc(-c2cc(=O)[nH]c3ccccc23)cc1", "bucket 1"),
    ("O=C(c1ccccc1Br)N1CCc2c([nH]c3ccccc23)C1", "bucket 2"),
    ("O=C(CCCOc1ccc(Cl)cc1)NCCc1ccccc1", "bucket 1"),
    ("Cc1ccc(NC(=O)CCn2cnc3ccccc3c2=O)c(C)c1", "bucket 2"),
    ("CCOC(=O)c1ccc(NC(=O)CSCCC(=O)O)cc1", "bucket 3"),
    ("CCN1CC(CN(C)Cc2nc(-c3ccco3)oc2C)CC1=O (stereo not drawn)", "bucket 3"),
    ("CCc1nc(C(N)=O)c2[nH]c(=O)n(-c3ccc(OC)cc3OC)c2n1", "bucket 3"),
    ("Cc1ccc(OCCC(=O)OC(C)C(=O)NC2CC2)cc1 (stereo not drawn)", "bucket 3"),
    ("NS(=O)(=O)c1ccc(CNc2ccc3ccccc3n2)cc1", "bucket 2"),
    ("COc1ccc(CCNC(=O)c2cc(C)oc2C)cc1OC", "bucket 3"),
    ("OCCNc1nc2ccccc2nc1NCCO", "bucket 2"),
    ("COc1ccc(/C=C/C(=O)NCCCN2CCCCCC2)cc1", "bucket 3"),
    ("Cc1ccc2cccc(OCc3cccc([N+](=O)[O-])c3)c2n1", "bucket 2"),
    ("COc1cc2c(cc1OC)CN(CC(=O)Nc1cccc([N+](=O)[O-])c1)CC2", "bucket 2"),
    ("CCOc1cnc(C(=O)NNC(=O)c2ccccc2Br)o1", "bucket 3"),
    ("C=CCOC(=O)C1=C(C)NC(=O)NC1c1ccc2c(c1)OCO2 (stereo not drawn)", "bucket 3"),
    ("CCOC(=O)C1CCCN(C(=O)c2ccccc2NS(=O)(=O)c2ccc(F)cc2)C1 (stereo not drawn)", "bucket 3"),
    ("O=C(c1cn(Cc2ccccc2)c2ccccc12)C1CC1", "bucket 1"),
    ("CN(CCC#N)C(=O)COC(=O)c1ccc2c(c1)C(=O)N(C1CCCCC1)C2=O", "bucket 2"),
    ("COc1ccc(/C=C/C(=O)NCc2ccccn2)cc1OC", "bucket 3"),
    ("CCOc1ccccc1C(=O)Nc1ccc2c(c1)C(=O)NC2=O", "bucket 1"),
    ("Cc1nc(C)c(Oc2cccc(C(F)(F)F)c2)c(=O)[nH]1", "bucket 2"),
    ("COc1ccccc1C(=O)OCC(=O)NC(=O)NC1CCCC1", "bucket 3"),
    ("CCOC(=O)c1c(C)[nH]c(C)c1S(=O)(=O)N1CCOCC1", "bucket 3"),
    ("CC(C)c1c(O)nc(SCCOc2ccc(Cl)cc2)[nH]c1=O", "bucket 3"),
    ("CCOc1ccccc1NC(=O)c1ccccc1-c1ccccc1", "bucket 1"),
    ("O=C(NCCO)/C(=C/c1ccco1)NC(=O)c1ccco1", "bucket 3"),
    ("Cc1ccc(Cl)cc1NC(=O)CN1C(=O)NC(C)(C2CC2)C1=O (stereo not drawn)", "bucket 3"),
    ("Cc1cccc(N2C(=O)CC(SC(N)=Nc3ccccc3)C2=O)c1 (stereo not drawn)", "bucket 1"),
    ("Cc1ccc(SCC(=O)NC2CC3CCC(C2)N3C)cc1 (stereo not drawn)", "bucket 3"),
    ("CC1(C)CC(=O)c2sc(NS(=O)(=O)c3ccc(Cl)cc3)nc2C1", "bucket 3"),
    ("COC(=O)NCC(c1ccco1)N1CCN(c2ccc(OC)cc2)CC1 (stereo not drawn)", "bucket 3"),
    ("CCO.N#CC1=C(N)Oc2c(oc(CO)cc2=O)C1c1ccccc1[N+](=O)[O-] (stereo not drawn)", "bucket 3"),
    ("Cc1cc(C(=O)OCC(=O)NCc2cccs2)ccc1[N+](=O)[O-]", "bucket 1"),
    ("CC(NC(=O)C1=CC=CN2CCS(=O)(=O)N=C12)c1ccc(Cl)c(Cl)c1 (stereo not drawn)", "bucket 3"),
]
